- tgt: recombinant human SYK360-635 (Homo sapiens)
- Construct: made in house
- assayName: Determination of IC50 of Spleen Tyrosine Kinase (SYK) inhibition, 33P ATP filtration assay
- Assay type: biochemical
- recordedConditions: SYK aa 360-635 0.5 nM; ATP 20 μM, peptide 5 μM, 0.1% BSA; read-out: SYK_ENZYME_FILTRATION/v1, BSA
measuredAttribute: IC50 (µM)
Number in µM, nothing else.

What does the record list as IC50 for Cc1ccc2c(-c3cnc4[nH]cc(C(=O)NC(C)(C)CN)c4n3)n[nH]c2c1 [Example I-435] ?
0.0167

Note, next up: CC(C)(C)NC(=O)c1c[nH]c2ncc(-c3ncn4cc(F)ccc34)nc12 [Example I-357]
0.0148

Proceed to Cn1nc(-c2cnc3[nH]cc(C(=O)NC4(CO)CC4)c3n2)c2ccc(F)cc21 [Example I-374]
0.00765

Follow-up entry: CC(C)(C)NC(=O)c1c[nH]c2ncc(-n3ncc4cc(C(F)(F)F)ccc43)nc12 [Example I-337]
0.595

Same question for CC(C)(C)NC(=O)c1c[nH]c2ncc(-c3nn(CCCN4CC(O)C4)c4ccc(OC(F)F)cc34)nc12 [Example I-300] please.
0.0031
